# tested on: Rolipram receptor (H)PDE4
# Construct: IC50(μM) Rolipram receptor (H)PDE4; other: origin Mouse brain
# protocol notes: competition at the rolipram receptor
# Type: binding, Mouse
# condition parameters: origin Mouse brain
measurement label: IC50 (µM)

| compound | tested on | IC50 [µM] |
| --- | --- | --- |
| COC(=O)C/C(=C\c1ccc(OC)c(OC2CCCC2)c1)C(=O)OC | Rolipram receptor (H)PDE4 | 0.571 |

P. COC(=O)/C(=C/c1ccc(OC)c(OC2CCCC2)c1)CCC(=O)O
Q. COC(=O)/C(=C/c1ccc(OC)c(OC2CCCC2)c1)CC(=O)NO
R. COC(=O)C(CC(=O)NO)Cc1ccc(OC)c(OC2CCCC2)c1 (racemic)
**Query** List from greatest to least IC50. Respond with the label ranking, as requested.
**Result** P, R, Q

====

# System: Rolipram receptor (H)PDE4
# protocol notes: competition at the rolipram receptor
# Type: binding, Mouse
# condition parameters: ratio IC50 (H)PDE4 / IC50 (L)PDE4
measurement label: H/L

| compound | tested on | endpoint value |
| --- | --- | --- |
| COC(=O)C(CC(=O)NO)Cc1ccc(OC)c(OC2CCCC2)c1 (racemic) | Rolipram receptor (H)PDE4 | 0.74 |
| COC(=O)/C(=C/c1ccc(OC)c(OC2CCCC2)c1)CC(=O)NO | Rolipram receptor (H)PDE4 | 0.51 |

P. COC(=O)C/C(=C\c1ccc(OC)c(OC2CCCC2)c1)C(=O)OC
Q. COC(=O)/C(=C/c1ccc(OC)c(OC2CCCC2)c1)CCC(=O)O
**Query** Endpoint returns the identifier whose H/L is numerically larger, either P or Q . Reply briefly: the label of your chosen item.
**Result** Q
(Q: 7.13, P: 0.33)
